pIC50: −log10 of the molar value.
Dear all, this message contains pIC50 results, target or system Amine oxidase [flavin-containing] A (Rattus norvegicus).

[Q] Please give the measured pIC50 for this molecule: "NCc1ccncc1NC1CC1"
[A] < 4.00

[Q] Here is the next molecule: "Cl.Cl.NCc1c(OCCO)cncc1OCCO.O.O.O"
[A] < 2.80

[Q] Here is the next molecule: "CCOc1cncc(OCC)c1CN.Cl.Cl"
[A] < 2.80

[Q] Here is the next molecule: "NCc1ccncc1NC1CCCC1"
[A] < 4.00

###

Biological target: UniProtKB P12807
Sequence (P12807 whole entry): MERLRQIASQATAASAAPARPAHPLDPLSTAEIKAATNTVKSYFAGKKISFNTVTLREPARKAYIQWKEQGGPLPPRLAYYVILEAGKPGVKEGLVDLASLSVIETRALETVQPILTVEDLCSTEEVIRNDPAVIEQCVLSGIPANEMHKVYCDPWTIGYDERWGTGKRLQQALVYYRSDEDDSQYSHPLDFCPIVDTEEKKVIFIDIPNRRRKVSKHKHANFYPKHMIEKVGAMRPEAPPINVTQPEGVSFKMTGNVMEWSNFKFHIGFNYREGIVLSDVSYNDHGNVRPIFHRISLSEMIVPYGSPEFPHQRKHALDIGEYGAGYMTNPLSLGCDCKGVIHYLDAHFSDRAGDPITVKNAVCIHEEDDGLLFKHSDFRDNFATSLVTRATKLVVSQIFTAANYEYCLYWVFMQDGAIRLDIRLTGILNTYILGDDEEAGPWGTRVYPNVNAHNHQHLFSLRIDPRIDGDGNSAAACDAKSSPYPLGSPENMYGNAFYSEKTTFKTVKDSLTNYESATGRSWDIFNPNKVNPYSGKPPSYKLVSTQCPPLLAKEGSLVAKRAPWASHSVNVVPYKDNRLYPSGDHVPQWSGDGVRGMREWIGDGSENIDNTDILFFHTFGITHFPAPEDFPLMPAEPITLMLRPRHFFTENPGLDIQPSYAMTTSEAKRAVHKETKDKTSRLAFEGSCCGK
Assay: Inhibition of beta-phenylethylamine binding to Hansenula polymorpha amine oxidase
Design: species or system Ogataea angusta
Measured Property: IC50

[Q] Please give the measured IC50 for this molecule: "NCc1ccncc1N(C1CCCC1)C1CCCC1"
[A] > 1000 µM

[Q] Here is the next molecule: "NCc1ccncc1NC1CCCCC1"
[A] > 1000 µM

[Q] Here is the next molecule: "NCc1ccncc1NC1CC1"
[A] > 1000 µM

[Q] Here is the next molecule: "CC(C)Nc1cnccc1CN"
[A] > 1000 µM

[Q] Here is the next molecule: "NCc1ccncc1NC1CCCCCC1"
[A] > 300 µM

[Q] Here is the next molecule: "CCOc1cncc(OCC)c1CN.Cl.Cl"
[A] > 1000 µM

Hey, just so you know, these numbers are from ChEMBL document CHEMBL1141879.
